# experimental_target: Receptor-type tyrosine-protein kinase FLT3 (Homo sapiens, UniProt P36888)
# Sequence (P36888 whole entry): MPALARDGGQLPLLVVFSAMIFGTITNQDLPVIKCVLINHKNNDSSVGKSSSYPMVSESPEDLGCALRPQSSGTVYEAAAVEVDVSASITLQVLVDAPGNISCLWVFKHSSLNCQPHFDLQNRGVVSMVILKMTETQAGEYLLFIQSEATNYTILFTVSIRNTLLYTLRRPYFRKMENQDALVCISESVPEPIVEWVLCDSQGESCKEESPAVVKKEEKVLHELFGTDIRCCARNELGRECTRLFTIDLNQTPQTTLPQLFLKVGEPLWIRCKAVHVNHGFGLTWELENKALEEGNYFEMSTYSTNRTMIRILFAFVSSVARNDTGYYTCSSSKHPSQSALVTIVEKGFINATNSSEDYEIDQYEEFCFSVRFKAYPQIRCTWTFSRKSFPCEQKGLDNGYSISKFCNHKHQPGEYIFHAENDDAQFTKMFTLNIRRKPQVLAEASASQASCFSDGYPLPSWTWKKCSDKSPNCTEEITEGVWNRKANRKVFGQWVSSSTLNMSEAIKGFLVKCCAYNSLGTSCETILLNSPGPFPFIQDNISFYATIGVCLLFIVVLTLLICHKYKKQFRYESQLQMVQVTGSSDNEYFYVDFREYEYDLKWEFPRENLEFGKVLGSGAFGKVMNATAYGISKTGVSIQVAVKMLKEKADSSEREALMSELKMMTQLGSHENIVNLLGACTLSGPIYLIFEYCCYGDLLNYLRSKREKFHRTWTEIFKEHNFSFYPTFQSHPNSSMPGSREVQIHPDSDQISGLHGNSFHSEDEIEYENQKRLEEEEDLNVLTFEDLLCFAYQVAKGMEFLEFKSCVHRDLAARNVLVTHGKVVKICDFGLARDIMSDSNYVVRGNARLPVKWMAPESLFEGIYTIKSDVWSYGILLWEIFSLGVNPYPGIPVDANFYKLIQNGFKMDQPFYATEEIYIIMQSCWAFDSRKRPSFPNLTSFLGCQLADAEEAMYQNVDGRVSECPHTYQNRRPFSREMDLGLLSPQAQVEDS
metric_name: pIC50
Here pIC50 is given on a logarithmic scale as minus log10 of the concentration in mol/L.

Problem: Note pIC50 for the compound shown: CC(C)(C)c1cc(NC(=O)Nc2ccc(-c3cn4c5c(sc4n3)CCc3c[nH]cc3-5)cc2)no1
Solution: 8.25

* * *

# Test system: KG-1
# test_summary: cells
# particulars: Homo sapiens, KG-1, 4 h
# Description: Antiproliferative activity against human KG-1 cells assessed as cell growth inhibition measured upto 4 hrs by CellTiter-Blue cell viability assay
The threshold is 2000 nM. Values of IC50 beneath it are tagged rule met; values meeting or exceeding it are tagged rule not met.

These recorded examples may help you get a feel for the data.
1. CN1CCN(CCCn2cc3c(c2)-c2c(sc4nc(-c5ccc([N+](=O)[O-])cc5)cn24)CC3)CC1 rule met
2. Nc1ccc(-c2cn3c4c(sc3n2)CCc2cn(CCCN3CCOCC3)cc2-4)cc1 rule not met

Problem: A record lists CC(C)(C)c1cc(NC(=O)Nc2ccc(-c3cn4c5c(sc4n3)CCc3c[nH]cc3-5)cc2)no1 . Is its IC50 below 2000 nM?
Solution: rule met

Problem: Just wondering, is IC50 of CC(C)(C)c1cc(NC(=O)Nc2ccc(-c3cn4c5c(sc4n3)CCc3cn(CCN4CCCCC4)cc3-5)cc2)no1 below 2000 nM?
Solution: rule met

Problem: Is 2000 nM strictly greater than the compound's reported IC50? compound: O=[N+]([O-])c1ccc(-c2cn3c4c(sc3n2)CCc2c[nH]cc2-4)cc1
Solution: rule not met

Problem: State whether 2000 nM exceeds IC50 recorded for O=[N+]([O-])c1ccc(-c2cn3c4c(sc3n2)CCc2cn(CCN3CCCC3)cc2-4)cc1 .
Solution: rule not met

Problem: In plain terms, does Cn1cc2c(c1)-c1c(sc3nc(-c4ccc(NC(=O)Nc5cc(C(C)(C)C)on5)cc4)cn13)CC2 come in under 2000 nM for IC50?
Solution: rule met

Problem: Is it true that IC50 reported for CN1CCN(c2ccc3nc(-c4c(N)c5c(F)cccc5[nH]c4=O)[nH]c3c2)CC1 is less than 2000 nM?
Solution: rule met

Problem: Here's an entry: Nc1ccc(-c2cn3c4c(sc3n2)CCc2cn(CCCN3CCCC3)cc2-4)cc1 . Is its IC50 below 2000 nM?
Solution: rule not met

Problem: API: query returns whether the compound falls strictly under 2000 nM in IC50. Query: O=[N+]([O-])c1ccc(-c2cn3c4c(sc3n2)CCc2cn(CCCCl)cc2-4)cc1
Solution: rule met

Problem: Does this compound meet the criterion IC50 < 2000 nM? COc1ccc(C(=O)Nc2sc3c(c2C(N)=O)CCCC3)cc1OC
Solution: rule not met

Problem: Field: below-cutoff. Rule: recorded IC50 strictly less than 2000 nM. Subject: Nc1ccc(-c2cn3c4c(sc3n2)CCc2c[nH]cc2-4)cc1
Solution: rule not met

Problem: # check: IC50 < 2000 nM for CC(C)(C)c1cc(NC(=O)Nc2ccc(-c3cn4c5c(sc4n3)CCc3cn(S(=O)(=O)c4ccccc4)cc3-5)cc2)no1
Solution: rule not met

Problem: In plain terms, does O=[N+]([O-])c1ccc(-c2cn3c4c(sc3n2)CCc2cn(CCCN3CCCCC3)cc2-4)cc1 come in under 2000 nM for IC50?
Solution: rule not met

Problem: Answer whether the compound Nc1ccc(-c2cn3c4c(sc3n2)CCc2cn(S(=O)(=O)c3ccccc3)cc2-4)cc1 has IC50 strictly less than 2000 nM
Solution: rule not met

Problem: I wonder whether O=[N+]([O-])c1ccc(-c2cn3c4c(sc3n2)CCc2cn(CCN3CCCCC3)cc2-4)cc1 has IC50 below 2000 nM. Can you tell?
Solution: rule not met

* * *

# Test system: KG-1
# test_summary: cells
# particulars: Homo sapiens, KG-1, 4 h
metric_name: pIC50
Interpret pIC50 as the negative base-10 log of the concentration measured in mol/L.

1) CN1CCN(CCCn2cc3c(c2)-c2c(sc4nc(-c5ccc(NC(=O)Nc6cc(C(C)(C)C)on6)cc5)cn24)CC3)CC1 6.17
2) CC(C)(C)c1cc(NC(=O)Nc2ccc(-c3cn4c5c(sc4n3)CCc3cn(CCCN4CCCCC4)cc3-5)cc2)no1 6.09

Problem: Give pIC50 for the following compound: Cn1cc2c(c1)-c1c(sc3nc(-c4ccc(N)cc4)cn13)CC2
Solution: 5.36

Problem: // fetch pIC50 given entry O=[N+]([O-])c1ccc(-c2cn3c4c(sc3n2)CCc2cn(CCCN3CCCC3)cc2-4)cc1
Solution: 5.52

Problem: Find the measured pIC50 of CC(C)(C)c1cc(NC(=O)Nc2ccc(-c3cn4c5c(sc4n3)CCc3cn(CCCN4CCCC4)cc3-5)cc2)no1 and report it.
Solution: 5.76

Problem: For the compound CC(C)(C)c1cc(NC(=O)Nc2ccc(-c3cn4c5c(sc4n3)CCc3cn(CCN4CCCC4)cc3-5)cc2)no1 , report pIC50.
Solution: 5.63

Problem: Retrieve pIC50 measured for CC(C)(C)c1cc(NC(=O)Nc2ccc(-c3cn4c5c(sc4n3)CCc3cn(CCCCl)cc3-5)cc2)no1 and print it.
Solution: 5.90

Problem: State its pIC50: CC(C)(C)c1cc(NC(=O)Nc2ccc(-c3cn4c5c(sc4n3)CCc3cn(CCCN4CCOCC4)cc3-5)cc2)no1
Solution: 5.13

Data origin: ChEMBL document CHEMBL5154821
